Each entry below carries its reported fold repression.
- targetDesc: T1, ECF34_1384
- T1 chain: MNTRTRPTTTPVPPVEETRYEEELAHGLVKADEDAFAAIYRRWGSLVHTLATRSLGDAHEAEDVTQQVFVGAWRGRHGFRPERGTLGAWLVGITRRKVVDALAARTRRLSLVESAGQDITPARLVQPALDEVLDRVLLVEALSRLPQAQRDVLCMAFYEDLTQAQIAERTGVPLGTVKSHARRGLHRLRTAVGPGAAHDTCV

These solved cases illustrate the format of a correct answer.
Recorded fold repression of AS11_987 (protein) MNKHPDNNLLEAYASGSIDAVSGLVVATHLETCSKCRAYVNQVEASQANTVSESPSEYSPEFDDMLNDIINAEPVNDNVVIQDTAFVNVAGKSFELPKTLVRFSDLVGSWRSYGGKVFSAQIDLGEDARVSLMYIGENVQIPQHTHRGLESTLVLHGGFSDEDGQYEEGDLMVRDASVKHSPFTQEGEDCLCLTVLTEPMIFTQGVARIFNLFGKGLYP , please.
2.37

Look at this binder and give its reported fold repression. AS37_2513 (protein) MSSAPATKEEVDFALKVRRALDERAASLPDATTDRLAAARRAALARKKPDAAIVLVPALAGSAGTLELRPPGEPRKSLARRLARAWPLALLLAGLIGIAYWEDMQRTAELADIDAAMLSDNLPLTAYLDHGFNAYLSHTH
6.47

Request the reported fold repression associated with AS33_423 (protein) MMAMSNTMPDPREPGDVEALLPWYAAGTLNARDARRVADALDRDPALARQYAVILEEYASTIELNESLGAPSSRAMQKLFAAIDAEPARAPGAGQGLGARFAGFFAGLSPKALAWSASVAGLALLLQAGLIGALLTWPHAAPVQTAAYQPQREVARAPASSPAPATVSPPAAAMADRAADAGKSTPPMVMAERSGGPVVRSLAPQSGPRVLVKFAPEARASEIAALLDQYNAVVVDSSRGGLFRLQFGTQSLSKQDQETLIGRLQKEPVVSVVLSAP
8.97

Further cases:
I would be grateful if you could share the reported fold repression for AS30_35 (protein) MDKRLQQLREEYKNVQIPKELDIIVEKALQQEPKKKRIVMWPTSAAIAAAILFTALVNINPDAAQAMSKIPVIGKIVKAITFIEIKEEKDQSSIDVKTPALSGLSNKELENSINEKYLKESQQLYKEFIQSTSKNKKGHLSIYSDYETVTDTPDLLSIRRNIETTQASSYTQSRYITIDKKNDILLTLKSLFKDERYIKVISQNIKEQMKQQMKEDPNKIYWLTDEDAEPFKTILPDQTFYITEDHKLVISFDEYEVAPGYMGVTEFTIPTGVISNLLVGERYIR .
2.04

Can you share its fold repression? I mean this binder: AS03_1198 (protein) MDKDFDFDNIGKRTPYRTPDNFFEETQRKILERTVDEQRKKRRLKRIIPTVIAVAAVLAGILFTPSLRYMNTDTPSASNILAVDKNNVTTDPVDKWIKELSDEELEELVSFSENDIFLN
0.959

Please give the measured fold repression for this binder: AS33_375 (protein) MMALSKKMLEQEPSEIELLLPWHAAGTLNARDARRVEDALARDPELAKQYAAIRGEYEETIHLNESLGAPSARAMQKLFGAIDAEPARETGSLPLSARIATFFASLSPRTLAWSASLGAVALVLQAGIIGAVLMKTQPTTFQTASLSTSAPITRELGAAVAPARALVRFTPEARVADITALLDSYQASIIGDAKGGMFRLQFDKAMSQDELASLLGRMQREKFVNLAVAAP
12.2
